Numbers sourced from ChEMBL document CHEMBL4330066.

# MEASUREMENT_DESCRIPTION: Selectivity index, ratio of IC50 for human MRC5 cells to IC50 for Trypanosoma brucei Lister 427, antigenic type MiTat 1.2, clone 221a
# Assay type: toxicity
# RECORDED_CONDITIONS: MRC5 cells versus Trypanosoma brucei Lister 427, read-out: Ratio IC50
PROPERTY_LABEL: selectivity ratio
Form: value (number only, do not type unit).

Below are worked cases with known answers.
>>> readout_value("CN(C)CCCc1cc2c3c(c(NCCCn4cc(CO[C@@H]5O[C@H](CO)[C@@H](O[C@@H]6O[C@H](CO)[C@H](O)[C@H](O)[C@H]6O)[C@H](O)[C@H]5O)nn4)cc4c3c1C(=O)N(CCCN(C)C)C4=O)C(=O)N(CCCN(C)C)C2=O")
17.9
>>> readout_value("CN(C)CCCN1C(=O)c2ccc3c4c(c(NCCCn5cc(CO[C@H]6O[C@H](CO)[C@@H](O)[C@H](O)[C@@H]6O)nn5)cc(c24)C1=O)C(=O)N(CCCN(C)C)C3=O")
1.1

Please turn your attention to the following entry.
Lookup: Give the value of selectivity ratio reported for the following: CN(C)CCCc1cc2c3c(c(NCCCn4cc(COCCOCCOCCO[C@@H]5O[C@H](CO)[C@@H](O[C@@H]6O[C@H](CO)[C@H](O)[C@H](O)[C@H]6O)[C@H](O)[C@H]5O)nn4)cc4c3c1C(=O)N(CCCN(C)C)C4=O)C(=O)N(CCCN(C)C)C2=O
Found: 8.5

----------
# MEASUREMENT_DESCRIPTION: Selectivity index, ratio of IC50 for human MRC5 cells to IC50 for Trypanosoma brucei Lister 427, antigenic type MiTat 1.2, clone 221a
# Assay type: toxicity
# RECORDED_CONDITIONS: MRC5 cells versus Trypanosoma brucei Lister 427, read-out: Ratio IC50
Here, each record is paired with measured selectivity ratio data.
Form: value (number only, do not type unit).

>>> readout_value("CCCNc1cc2c3c(c(CCCN(C)C)cc4c3c1C(=O)N(CCCN(C)C)C4=O)C(=O)N(CCCN(C)C)C2=O")
26.7
>>> readout_value("CN(C)CCCc1cc2c3c(c(NCCCn4cc(CCO[C@@H]5O[C@H](CO)[C@@H](O[C@H]6O[C@H](CO)[C@@H](O)[C@H](O)[C@H]6O)[C@H](O)[C@H]5O)nn4)cc4c3c1C(=O)N(CCCN(C)C)C4=O)C(=O)N(CCCN(C)C)C2=O")
32.7

Lookup: Give the value of selectivity ratio reported for the following: CN(C)CCCc1cc2c3c(c(NCCCn4cc(CO[C@@H]5O[C@H](CO)[C@@H](O)[C@H](O)[C@H]5O)nn4)cc4c3c1C(=O)N(CCCN(C)C)C4=O)C(=O)N(CCCN(C)C)C2=O
Found: 5.7

----------
# MEASUREMENT_DESCRIPTION: Cytotoxicity against human THP1 cells
# Format: cell-based
# RECORDED_CONDITIONS: THP-1 cells, read-out: TC50 (the source's name)
PROPERTY_LABEL: CC50

Below are worked cases with known answers.
>>> readout_value("CN(C)CCCN1C(=O)c2ccc3c4c(c(NCCCn5cc(CCO[C@@H]6O[C@H](CO)[C@@H](O[C@@H]7O[C@H](CO)[C@H](O)[C@H](O)[C@H]7O)[C@H](O)[C@H]6O)nn5)cc(c24)C1=O)C(=O)N(CCCN(C)C)C3=O")
"> 10 µM"
>>> readout_value("CN(C)CCCN1C(=O)c2ccc3c4c(c(NCCCn5cc(CCO[C@@H]6O[C@H](CO)[C@@H](O)[C@H](O)[C@H]6O)nn5)cc(c24)C1=O)C(=O)N(CCCN(C)C)C3=O")
"2.18 µM"
>>> readout_value("CN(C)CCCN1C(=O)c2ccc3c4c(c(NCc5cn([C@@H]6O[C@H](CO)[C@@H](O)[C@H](O)[C@H]6O)nn5)cc(c24)C1=O)C(=O)N(CCCN(C)C)C3=O")
"8.1 µM"
>>> readout_value("CN(C)CCCN1C(=O)c2ccc3c4c(c(NCCCn5cc(COCCOCCOCCO[C@@H]6O[C@H](CO)[C@@H](O[C@H]7O[C@H](CO)[C@@H](O)[C@H](O)[C@H]7O)[C@H](O)[C@H]6O)nn5)cc(c24)C1=O)C(=O)N(CCCN(C)C)C3=O")
"> 10 µM"

Lookup: Give the value of CC50 reported for the following: CN(C)CCCN1C(=O)c2ccc3c4c(c(NCCCn5cc(CCO[C@@H]6O[C@H](CO)[C@@H](O[C@H]7O[C@H](CO)[C@@H](O)[C@H](O)[C@H]7O)[C@H](O)[C@H]6O)nn5)cc(c24)C1=O)C(=O)N(CCCN(C)C)C3=O
Found: 1.52 µM
